# experimental.details: Tissue concentrations of vinorelbine and deacetylvinorelbine 4 h after oral vinorelbine in CES2-modified mice
# Assay type: in vivo, mouse
# stated.conditions: male, mouse, small intestine contents, oral, 10 mg/kg, male Ces2^–/–V mice, oral vinorelbine 10 mg/kg, read-out: CSIC (small intestine contents concentration)
# Method: For capecitabine 2-h experiments, 6–7 female mice received oral capecitabine (500 mg/kg, 10 μL/g), and tail vein blood samples were collected at 0.125, 0.25, 0.5 and 1 h after drug administration. […] Concentrations of capecitabine (and its metabolites) and vinorelbine (and its metabolite) in mouse plasma samples and organ homogenates were determined using two independent validated high-performance liquid chromatography-tandem mass spectrometry assays. […]
attribute.measured: concentration at 4 h (ng/g)
Quick reminder: number only, in ng/g, skip the unit.

Input: Given the entry CCC1=C[C@@H]2CN(C1)Cc1c([nH]c3ccccc13)[C@@](C(=O)OC)(c1cc3c(cc1OC)N(C)[C@H]1[C@@](O)(C(=O)OC)[C@H](OC(C)=O)[C@]4(CC)C=CCN5CC[C@]31[C@@H]54)C2 [Vinorelbine, reference compound] , report its measured concentration at 4 h.
Output: 114000
